Where these numbers come from: paper PMC5508980

molecular target: recombinant HDAC9 (Homo sapiens); test: Recombinant HDAC activity assay; format: biochemical; settings: 2 h, read-out: % HDAC activity, Class IIa HDACs, 9
Sequence (Q9UKV0 whole entry): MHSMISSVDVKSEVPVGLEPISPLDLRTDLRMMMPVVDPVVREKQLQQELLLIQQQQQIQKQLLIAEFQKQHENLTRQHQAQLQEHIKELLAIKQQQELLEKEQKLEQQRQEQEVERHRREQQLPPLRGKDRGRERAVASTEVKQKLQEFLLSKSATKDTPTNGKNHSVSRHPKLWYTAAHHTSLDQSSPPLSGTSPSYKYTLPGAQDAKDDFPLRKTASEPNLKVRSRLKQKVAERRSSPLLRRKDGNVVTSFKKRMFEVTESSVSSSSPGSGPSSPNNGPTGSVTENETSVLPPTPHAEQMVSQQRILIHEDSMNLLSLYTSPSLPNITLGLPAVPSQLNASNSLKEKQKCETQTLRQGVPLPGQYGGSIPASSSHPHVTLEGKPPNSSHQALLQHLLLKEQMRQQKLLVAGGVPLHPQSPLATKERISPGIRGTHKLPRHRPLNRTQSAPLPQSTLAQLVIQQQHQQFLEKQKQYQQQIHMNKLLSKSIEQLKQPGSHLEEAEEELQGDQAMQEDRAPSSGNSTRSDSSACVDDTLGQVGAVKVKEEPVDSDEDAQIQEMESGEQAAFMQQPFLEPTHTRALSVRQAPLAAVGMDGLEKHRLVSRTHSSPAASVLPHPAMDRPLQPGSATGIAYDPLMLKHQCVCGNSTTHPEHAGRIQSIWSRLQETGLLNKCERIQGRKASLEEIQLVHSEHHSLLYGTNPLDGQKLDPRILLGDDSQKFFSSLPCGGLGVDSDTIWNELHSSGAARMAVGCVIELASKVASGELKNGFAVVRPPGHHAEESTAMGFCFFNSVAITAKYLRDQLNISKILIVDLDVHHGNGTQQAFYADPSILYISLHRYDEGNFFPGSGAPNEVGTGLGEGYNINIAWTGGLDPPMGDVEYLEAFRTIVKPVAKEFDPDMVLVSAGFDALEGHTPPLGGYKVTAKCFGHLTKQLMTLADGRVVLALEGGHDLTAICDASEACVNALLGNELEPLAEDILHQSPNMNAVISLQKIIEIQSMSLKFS
Class (by remaining activity at 50 µM) -- one: < 50%; two: ≥ 50% and < 80%; three: ≥ 80%

Worked set:
- Compound: "O=c1c(O)c(-c2ccc(O)cc2)oc2cc(O)cc(O)c12"
  Cat: "two"
- Compound: "O=c1c(O)c(-c2cc(O)c(O)c(O)c2)oc2cc(O)cc(O)c12"
  Cat: "two"
- Compound: "O=c1cc(-c2ccc(O)c(O)c2)oc2cc(O)cc(O)c12"
  Cat: "two"
- Compound: "O=c1cc(-c2ccccc2)oc2cc(O)c(O)c(O)c12"
  Cat: "two"
- Compound: "O=C(O)[C@H]1O[C@@H](Oc2cc3oc(-c4ccccc4)cc(=O)c3c(O)c2O)[C@H](O)[C@@H](O)[C@@H]1O"
  Cat: "three"

query: Kindly identify the class of O=c1c(O)c(-c2ccc(O)c(O)c2)oc2cc(O)cc(O)c12 [Quercetin dihydrate] .
result: two

query: Kindly identify the class of Cc1cc(O)c2c(c1)C(=O)c1cc(O)cc(O)c1C2=O .
result: one

query: Kindly identify the class of Cc1cc2c(C(C)C)c(O)c(O)c(C=O)c2c(O)c1-c1c(C)cc2c(C(C)C)c(O)c(O)c(C=O)c2c1O .
result: one

query: Kindly identify the class of O=C1c2c(O)cc(O)cc2O[C@H](c2cc(O)c(O)c(O)c2)[C@H]1O [Dihydromyricetin] .
result: three

====

molecular target: recombinant HDAC3 (Homo sapiens); assay: Recombinant HDAC activity assay; type: biochemical; details: 2 h, read-out: % HDAC activity, Class I HDACs, 3
Sequence (O15379 whole entry): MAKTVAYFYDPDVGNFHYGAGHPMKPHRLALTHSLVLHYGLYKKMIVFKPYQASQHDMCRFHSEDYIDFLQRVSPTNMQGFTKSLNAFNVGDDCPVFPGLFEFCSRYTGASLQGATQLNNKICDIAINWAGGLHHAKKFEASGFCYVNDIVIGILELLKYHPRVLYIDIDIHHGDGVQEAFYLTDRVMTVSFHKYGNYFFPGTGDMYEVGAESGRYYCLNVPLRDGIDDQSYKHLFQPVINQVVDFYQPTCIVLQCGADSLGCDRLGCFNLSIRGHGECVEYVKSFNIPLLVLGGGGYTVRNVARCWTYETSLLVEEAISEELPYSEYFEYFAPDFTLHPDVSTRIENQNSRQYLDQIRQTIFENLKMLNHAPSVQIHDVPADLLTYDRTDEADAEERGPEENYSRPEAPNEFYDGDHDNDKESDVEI
Sequence (Q9Y618 395-489 partner limits assumed): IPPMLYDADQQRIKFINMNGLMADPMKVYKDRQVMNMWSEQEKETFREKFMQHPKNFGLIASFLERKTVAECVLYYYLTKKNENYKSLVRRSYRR
Counter-ions that a name gives are not always drawn.
So basically: is remaining activity at 50 µM under 60%? Then 1.0. Not under? Then 0.0.

- Molecule: "O=C1Nc2ccccc2/C1=C1/Nc2ccccc2C1=O"
  Cat: 1.0
- Molecule: "COc1ccc2cc3[n+](cc2c1OC)CCc1cc2c(cc1-3)OCO2 [Berberine HCl, berberine hydrochloride]"
  Cat: 1.0
- Molecule: "O=c1c(O)c(-c2ccc(O)c(O)c2)oc2cc(O)cc(O)c12 [Quercetin dihydrate]"
  Cat: 0.0
- Molecule: "O=C1c2c(O)cc(O)cc2O[C@H](c2cc(O)c(O)c(O)c2)[C@H]1O [Dihydromyricetin]"
  Cat: 0.0

query: I'd appreciate it if you could check whether O=c1cc(-c2ccc(O)c(O)c2)oc2cc(O)cc(O)c12 has remaining activity at 50 µM smaller than 60%.
result: 1.0

query: I'd appreciate it if you could check whether Cc1cc(O)c2c(c1)C(=O)c1cc(O)cc(O)c1C2=O has remaining activity at 50 µM smaller than 60%.
result: 1.0

query: I'd appreciate it if you could check whether O=C(O)[C@H]1O[C@@H](Oc2cc3oc(-c4ccccc4)cc(=O)c3c(O)c2O)[C@H](O)[C@@H](O)[C@@H]1O has remaining activity at 50 µM smaller than 60%.
result: 0.0

query: I'd appreciate it if you could check whether O=c1c(O)c(-c2ccc(O)cc2)oc2cc(O)cc(O)c12 has remaining activity at 50 µM smaller than 60%.
result: 0.0

query: I'd appreciate it if you could check whether O=c1cc(-c2ccc(O)cc2)oc2cc(O)cc(O)c12 has remaining activity at 50 µM smaller than 60%.
result: 0.0

query: I'd appreciate it if you could check whether Cc1cc2c(C(C)C)c(O)c(O)c(C=O)c2c(O)c1-c1c(C)cc2c(C(C)C)c(O)c(O)c(C=O)c2c1O has remaining activity at 50 µM smaller than 60%.
result: 1.0

====

Molecular target: recombinant HDAC8 (Homo sapiens)
Sequence (Q9BY41 1-377): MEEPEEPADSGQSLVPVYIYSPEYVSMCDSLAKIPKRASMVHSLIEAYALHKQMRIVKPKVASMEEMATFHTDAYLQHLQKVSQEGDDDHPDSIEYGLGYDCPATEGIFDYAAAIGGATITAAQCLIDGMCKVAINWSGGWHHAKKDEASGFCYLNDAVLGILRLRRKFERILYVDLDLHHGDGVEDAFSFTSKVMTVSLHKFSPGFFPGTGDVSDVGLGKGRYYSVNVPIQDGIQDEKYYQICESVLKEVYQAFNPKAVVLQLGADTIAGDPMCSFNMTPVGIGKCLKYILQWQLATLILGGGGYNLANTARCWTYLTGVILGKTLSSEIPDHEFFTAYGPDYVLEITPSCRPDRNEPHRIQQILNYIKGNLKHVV
Assay: Recombinant HDAC activity assay
Type: biochemical
Details: 2 h, read-out: % HDAC activity, Class I HDACs, 8
Readout label: remaining activity at 50 µM (%)
# value in %; strip the unit string

- Molecule: "O=c1c(O)c(-c2ccc(O)cc2)oc2cc(O)cc(O)c12"
  Readout label: "remaining activity at 50 µM"
  Reported: 68.7

query: Kindly state the measured remaining activity at 50 µM obtained for O=c1cc(-c2ccc(O)cc2)oc2cc(O)cc(O)c12 with recombinant HDAC8 (Homo sapiens).
result: 76.5

query: Kindly state the measured remaining activity at 50 µM obtained for O=C1c2c(O)cc(O)cc2O[C@H](c2cc(O)c(O)c(O)c2)[C@H]1O [Dihydromyricetin] with recombinant HDAC8 (Homo sapiens).
result: 81.9

query: Kindly state the measured remaining activity at 50 µM obtained for Cc1cc2c(C(C)C)c(O)c(O)c(C=O)c2c(O)c1-c1c(C)cc2c(C(C)C)c(O)c(O)c(C=O)c2c1O with recombinant HDAC8 (Homo sapiens).
result: 40.7

query: Kindly state the measured remaining activity at 50 µM obtained for O=C1Nc2ccccc2/C1=C1/Nc2ccccc2C1=O with recombinant HDAC8 (Homo sapiens).
result: 58.4

query: Kindly state the measured remaining activity at 50 µM obtained for O=c1c(O)c(-c2cc(O)c(O)c(O)c2)oc2cc(O)cc(O)c12 with recombinant HDAC8 (Homo sapiens).
result: 60.2

====

target: recombinant HDAC6 (Homo sapiens, UniProt Q9UBN7); experiment: Recombinant HDAC activity assay; assay type: biochemical; conditions: 2 h, read-out: % HDAC activity, Class IIb HDACs, 6
Sequence (Q9UBN7 whole entry): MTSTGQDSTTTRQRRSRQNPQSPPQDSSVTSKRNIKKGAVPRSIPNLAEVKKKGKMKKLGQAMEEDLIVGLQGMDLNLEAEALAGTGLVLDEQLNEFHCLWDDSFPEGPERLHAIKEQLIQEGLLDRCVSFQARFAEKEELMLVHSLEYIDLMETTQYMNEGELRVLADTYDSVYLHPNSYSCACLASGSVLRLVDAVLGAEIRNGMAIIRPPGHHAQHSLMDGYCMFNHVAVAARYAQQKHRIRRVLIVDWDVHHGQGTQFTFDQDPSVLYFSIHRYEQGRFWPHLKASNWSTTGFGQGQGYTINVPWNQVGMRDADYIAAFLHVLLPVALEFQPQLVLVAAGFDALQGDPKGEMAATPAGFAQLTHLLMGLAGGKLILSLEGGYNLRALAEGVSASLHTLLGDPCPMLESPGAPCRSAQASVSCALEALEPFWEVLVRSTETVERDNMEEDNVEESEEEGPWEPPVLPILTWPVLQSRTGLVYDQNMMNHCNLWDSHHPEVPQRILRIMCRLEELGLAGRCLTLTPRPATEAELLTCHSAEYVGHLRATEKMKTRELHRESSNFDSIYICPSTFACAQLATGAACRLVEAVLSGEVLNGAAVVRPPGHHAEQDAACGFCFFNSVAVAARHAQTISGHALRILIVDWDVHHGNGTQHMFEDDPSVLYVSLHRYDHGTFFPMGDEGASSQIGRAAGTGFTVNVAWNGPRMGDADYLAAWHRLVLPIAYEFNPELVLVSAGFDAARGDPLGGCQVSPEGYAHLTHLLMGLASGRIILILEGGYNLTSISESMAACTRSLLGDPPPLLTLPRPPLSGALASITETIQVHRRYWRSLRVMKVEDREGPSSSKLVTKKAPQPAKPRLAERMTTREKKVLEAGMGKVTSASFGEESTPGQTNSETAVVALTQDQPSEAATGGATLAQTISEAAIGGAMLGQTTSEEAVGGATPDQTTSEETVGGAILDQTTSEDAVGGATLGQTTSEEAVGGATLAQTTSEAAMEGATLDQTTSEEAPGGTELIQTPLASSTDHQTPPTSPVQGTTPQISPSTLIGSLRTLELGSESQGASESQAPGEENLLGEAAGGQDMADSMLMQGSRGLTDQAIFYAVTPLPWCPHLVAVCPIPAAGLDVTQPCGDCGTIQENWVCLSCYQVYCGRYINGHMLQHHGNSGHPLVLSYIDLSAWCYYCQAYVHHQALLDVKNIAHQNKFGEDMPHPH
Structures can show the parent of a compound that is named as a salt.
So basically: is remaining activity at 50 µM under 70%? Then true (1). Not under? Then false (0).

query: I'd appreciate it if you could check whether Cc1cc(O)c2c(c1)C(=O)c1cc(O)cc(O)c1C2=O has remaining activity at 50 µM smaller than 70%.
result: true (1)

query: I'd appreciate it if you could check whether O=C1Nc2ccccc2/C1=C1/Nc2ccccc2C1=O has remaining activity at 50 µM smaller than 70%.
result: true (1)

query: I'd appreciate it if you could check whether Oc1cc2c(cc1O)[C@@H]1c3ccc(O)c(O)c3OC[C@]1(O)C2 has remaining activity at 50 µM smaller than 70%.
result: false (0)

query: I'd appreciate it if you could check whether O=C(O)[C@H]1O[C@@H](Oc2cc3oc(-c4ccccc4)cc(=O)c3c(O)c2O)[C@H](O)[C@@H](O)[C@@H]1O has remaining activity at 50 µM smaller than 70%.
result: false (0)

query: I'd appreciate it if you could check whether COc1ccc2cc3[n+](cc2c1OC)CCc1cc2c(cc1-3)OCO2 [Berberine HCl, berberine hydrochloride] has remaining activity at 50 µM smaller than 70%.
result: true (1)

====

Listed here: items and their measured remaining activity at 50 µM.
biological target: recombinant HDAC5 (Homo sapiens, UniProt Q9UQL6); assay: Recombinant HDAC activity assay; format: biochemical; conditions: 2 h, read-out: % HDAC activity, Class IIa HDACs, 5
Sequence (Q9UQL6 whole entry): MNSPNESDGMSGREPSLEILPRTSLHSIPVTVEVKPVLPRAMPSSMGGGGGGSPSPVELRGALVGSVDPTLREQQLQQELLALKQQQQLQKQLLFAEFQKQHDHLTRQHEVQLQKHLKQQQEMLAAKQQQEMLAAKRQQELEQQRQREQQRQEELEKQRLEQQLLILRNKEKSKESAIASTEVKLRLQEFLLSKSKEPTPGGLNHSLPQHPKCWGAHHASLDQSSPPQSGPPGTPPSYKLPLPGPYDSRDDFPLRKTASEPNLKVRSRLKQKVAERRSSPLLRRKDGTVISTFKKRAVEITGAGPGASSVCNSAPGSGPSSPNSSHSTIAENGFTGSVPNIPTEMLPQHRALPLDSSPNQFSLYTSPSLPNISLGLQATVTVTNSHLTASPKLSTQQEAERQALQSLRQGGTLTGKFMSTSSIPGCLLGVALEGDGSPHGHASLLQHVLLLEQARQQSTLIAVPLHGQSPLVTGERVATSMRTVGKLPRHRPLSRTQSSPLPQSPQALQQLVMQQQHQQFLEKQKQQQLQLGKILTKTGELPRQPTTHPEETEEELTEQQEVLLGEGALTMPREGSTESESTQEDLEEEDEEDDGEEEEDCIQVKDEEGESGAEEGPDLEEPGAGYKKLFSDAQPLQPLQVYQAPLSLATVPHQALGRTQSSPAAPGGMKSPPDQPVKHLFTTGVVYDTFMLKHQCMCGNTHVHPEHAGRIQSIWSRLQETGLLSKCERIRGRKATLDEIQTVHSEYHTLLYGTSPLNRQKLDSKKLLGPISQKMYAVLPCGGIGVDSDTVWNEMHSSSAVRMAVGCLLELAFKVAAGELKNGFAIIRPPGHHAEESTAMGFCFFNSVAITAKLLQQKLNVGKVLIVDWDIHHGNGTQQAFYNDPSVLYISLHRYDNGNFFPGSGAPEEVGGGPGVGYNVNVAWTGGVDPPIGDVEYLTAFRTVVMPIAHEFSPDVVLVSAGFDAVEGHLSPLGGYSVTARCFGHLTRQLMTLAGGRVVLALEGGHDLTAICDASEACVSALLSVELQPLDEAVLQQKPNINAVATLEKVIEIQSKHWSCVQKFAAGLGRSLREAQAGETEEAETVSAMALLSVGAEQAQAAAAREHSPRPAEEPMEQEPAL
# value in %; strip the unit string

- Molecule: "O=c1c(O)c(-c2ccc(O)cc2)oc2cc(O)cc(O)c12 [Kaempferol]"
  remaining activity at 50 µM (%): 73.5
- Molecule: "Cc1cc(O)c2c(c1)C(=O)c1cc(O)cc(O)c1C2=O [Emodin]"
  remaining activity at 50 µM (%): 31.4
- Molecule: "O=c1c(O)c(-c2cc(O)c(O)c(O)c2)oc2cc(O)cc(O)c12 [Myricetin]"
  remaining activity at 50 µM (%): 65.1
- Molecule: "O=c1cc(-c2ccc(O)c(O)c2)oc2cc(O)cc(O)c12 [Luteolin]"
  remaining activity at 50 µM (%): 59.5

query: Consider the molecule O=c1cc(-c2ccccc2)oc2cc(O)c(O)c(O)c12 [Baicalein] and give its measured remaining activity at 50 µM.
result: 76.6

====

Listed here: items and their measured remaining activity at 50 µM.
molecular target: recombinant HDAC5 (Homo sapiens, UniProt Q9UQL6); experiment: Recombinant HDAC activity assay; format: biochemical; conditions: 2 h, read-out: % HDAC activity, Class IIa HDACs, 5

Known remaining activity at 50 µM results, listed for orientation:
- Compound: "O=C1c2c(O)cc(O)cc2O[C@H](c2cc(O)c(O)c(O)c2)[C@H]1O [Dihydromyricetin]"
  Reported: "73.4%"
- Compound: "O=c1c(O)c(-c2ccc(O)c(O)c2)oc2cc(O)cc(O)c12 [Quercetin dihydrate]"
  Reported: "78.2%"

query: Consider the compound O=C(O)[C@H]1O[C@@H](Oc2cc3oc(-c4ccccc4)cc(=O)c3c(O)c2O)[C@H](O)[C@@H](O)[C@@H]1O [Baicalin] and give its measured remaining activity at 50 µM.
result: 81.8%

query: Consider the compound Cc1cc2c(C(C)C)c(O)c(O)c(C=O)c2c(O)c1-c1c(C)cc2c(C(C)C)c(O)c(O)c(C=O)c2c1O [Gossypol] and give its measured remaining activity at 50 µM.
result: 51.5%
